Taken from the supplement of paper PMC9112550.

tested on: Escherichia coli TOP10; assay: shrunken log2 fold change of peptide-encoding DNA abundance (4.5 h post-induction vs induction); higher = less antimicrobial activity (less host growth inhibition); settings: time post-induction: 4.5 h; library: site-saturation at positions 5, 18, 19, 20
Binary call on shrunken log2 fold change: class 1 from 0.07 upward, class 0 beneath that.

# polymer-sequence, class-assignment
records = [
    ("RRIRSRPPRLPRPRPRPDCCPRP", "class 1"),
    ("RRIRYRPPRLPRPRPRPQWWPRP", "class 1"),
    ("RRIRWRPPRLPRPRPRPSGYPRP", "class 1"),
    ("RRIRWRPPRLPRPRPRPTASPRP", "class 1"),
    ("RRIRDRPPRLPRPRPRPSEEPRP", "class 1"),
    ("RRIRLRPPRLPRPRPRPGICPRP", "class 1"),
    ("RRIRTRPPRLPRPRPRPPEKPRP", "class 1"),
    ("RRIRSRPPRLPRPRPRPFRLPRP", "class 0"),
    ("RRIRWRPPRLPRPRPRPFYMPRP", "class 0"),
    ("RRIRVRPPRLPRPRPRPVDYPRP", "class 0"),
    ("RRIRHRPPRLPRPRPRPSTDPRP", "class 0"),
    ("RRIRMRPPRLPRPRPRPLMYPRP", "class 0"),
    ("RRIRPRPPRLPRPRPRPENNPRP", "class 0"),
    ("RRIRCRPPRLPRPRPRPWMNPRP", "class 0"),
    ("RRIRTRPPRLPRPRPRPVVSPRP", "class 1"),
    ("RRIRCRPPRLPRPRPRPEFDPRP", "class 0"),
    ("RRIRSRPPRLPRPRPRPEWLPRP", "class 1"),
    ("RRIRDRPPRLPRPRPRPEPHPRP", "class 1"),
    ("RRIRNRPPRLPRPRPRPRQDPRP", "class 1"),
    ("RRIRCRPPRLPRPRPRPQTEPRP", "class 0"),
    ("RRIRHRPPRLPRPRPRPYTEPRP", "class 0"),
    ("RRIRNRPPRLPRPRPRPYEPPRP", "class 0"),
    ("RRIRYRPPRLPRPRPRPFIQPRP", "class 0"),
    ("RRIRQRPPRLPRPRPRPQQPPRP", "class 0"),
    ("RRIRFRPPRLPRPRPRPEAIPRP", "class 1"),
    ("RRIRMRPPRLPRPRPRPNAAPRP", "class 1"),
    ("RRIRFRPPRLPRPRPRPLAYPRP", "class 0"),
    ("RRIRIRPPRLPRPRPRPYRYPRP", "class 0"),
    ("RRIRCRPPRLPRPRPRPMAGPRP", "class 0"),
    ("RRIRWRPPRLPRPRPRPMCTPRP", "class 1"),
    ("RRIRHRPPRLPRPRPRPVMVPRP", "class 0"),
]

---

Recorded measurements of shrunken log2 fold change, one per entry
tested on: Escherichia coli TOP10; test: shrunken log2 fold change of peptide-encoding DNA abundance (4.5 h post-induction vs induction); higher = less antimicrobial activity (less host growth inhibition); conditions: time post-induction: 4.5 h; library: site-saturation at positions 5, 18, 19, 20

# polymer-sequence, shrunken log2 fold change
records = [
    ("RRIRRRPPRLPRPRPRPQEEPRP", 0.0332),
    ("RRIRSRPPRLPRPRPRPWILPRP", -0.0844),
    ("RRIRCRPPRLPRPRPRPWEKPRP", 0.0651),
    ("RRIRYRPPRLPRPRPRPDNCPRP", -0.0299),
    ("RRIRWRPPRLPRPRPRPQPSPRP", 0.287),
    ("RRIRQRPPRLPRPRPRPLFEPRP", 0.0725),
    ("RRIRCRPPRLPRPRPRPNSFPRP", -0.58),
    ("RRIRCRPPRLPRPRPRPWLEPRP", 0.117),
]

---

system: Escherichia coli TOP10; test: shrunken log2 fold change of peptide-encoding DNA abundance (4.5 h post-induction vs induction); higher = less antimicrobial activity (less host growth inhibition); settings: time post-induction: 4.5 h; library: site-saturation at positions 5, 18, 19, 20
Where shrunken log2 fold change equals or exceeds -0.09, the correct label is 1.0; where it does not, the label is 0.0.

# polymer-sequence, class-assignment
rows = [
    ("RRIRIRPPRLPRPRPRPPENPRP", 1.0),
    ("RRIRNRPPRLPRPRPRPYMNPRP", 0.0),
    ("RRIRDRPPRLPRPRPRPYWRPRP", 1.0),
    ("RRIRHRPPRLPRPRPRPVCIPRP", 0.0),
    ("RRIRVRPPRLPRPRPRPGYWPRP", 1.0),
    ("RRIRIRPPRLPRPRPRPVAGPRP", 1.0),
    ("RRIRHRPPRLPRPRPRPSSGPRP", 0.0),
    ("RRIRRRPPRLPRPRPRPVGAPRP", 1.0),
    ("RRIRVRPPRLPRPRPRPVQIPRP", 1.0),
    ("RRIRERPPRLPRPRPRPLRWPRP", 1.0),
    ("RRIRARPPRLPRPRPRPFDDPRP", 1.0),
    ("RRIRTRPPRLPRPRPRPYFEPRP", 0.0),
    ("RRIRKRPPRLPRPRPRPCVHPRP", 0.0),
]

---

tested on: Escherichia coli TOP10; assay: shrunken log2 fold change of peptide-encoding DNA abundance (4.5 h post-induction vs induction); higher = less antimicrobial activity (less host growth inhibition); conditions: time post-induction: 4.5 h; library: site-saturation at positions 5, 18, 19, 20;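 note: peptides expressed intracellularly from a pBAD plasmid library in pooled LB shake-flask culture, induced with 0.3% L-arabinose, DNA abundance read by NGS, three biological replicates, DESeq2 with apeglm shrinkage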
shrunken log2 fold change below -0.1 gives No; shrunken log2 fold change at or above it gives Yes.

# polymer-sequence, tested-target, class-assignment
data = [
    ("RRIRNRPPRLPRPRPRPGVAPRP", "Escherichia coli TOP10", "Yes"),
    ("RRIRIRPPRLPRPRPRPSVKPRP", "Escherichia coli TOP10", "Yes"),
    ("RRIRSRPPRLPRPRPRPIDVPRP", "Escherichia coli TOP10", "Yes"),
    ("RRIRNRPPRLPRPRPRPVMYPRP", "Escherichia coli TOP10", "No"),
    ("RRIRLRPPRLPRPRPRPCPIPRP", "Escherichia coli TOP10", "No"),
    ("RRIRERPPRLPRPRPRPGELPRP", "Escherichia coli TOP10", "No"),
    ("RRIRGRPPRLPRPRPRPGPYPRP", "Escherichia coli TOP10", "Yes"),
    ("RRIRSRPPRLPRPRPRPWETPRP", "Escherichia coli TOP10", "Yes"),
    ("RRIRLRPPRLPRPRPRPEKYPRP", "Escherichia coli TOP10", "No"),
    ("RRIRPRPPRLPRPRPRPVQMPRP", "Escherichia coli TOP10", "Yes"),
    ("RRIRRRPPRLPRPRPRPGTIPRP", "Escherichia coli TOP10", "No"),
    ("RRIRTRPPRLPRPRPRPMEPPRP", "Escherichia coli TOP10", "Yes"),
    ("RRIRIRPPRLPRPRPRPRLRPRP", "Escherichia coli TOP10", "Yes"),
    ("RRIRGRPPRLPRPRPRPWGFPRP", "Escherichia coli TOP10", "No"),
    ("RRIRARPPRLPRPRPRPPKTPRP", "Escherichia coli TOP10", "Yes"),
    ("RRIRKRPPRLPRPRPRPTSPPRP", "Escherichia coli TOP10", "Yes"),
    ("RRIRQRPPRLPRPRPRPPGHPRP", "Escherichia coli TOP10", "Yes"),
    ("RRIRRRPPRLPRPRPRPATSPRP", "Escherichia coli TOP10", "Yes"),
    ("RRIRLRPPRLPRPRPRPYQIPRP", "Escherichia coli TOP10", "No"),
    ("RRIRFRPPRLPRPRPRPCSLPRP", "Escherichia coli TOP10", "No"),
    ("RRIRDRPPRLPRPRPRPTQRPRP", "Escherichia coli TOP10", "Yes"),
    ("RRIRYRPPRLPRPRPRPCLIPRP", "Escherichia coli TOP10", "Yes"),
    ("RRIRMRPPRLPRPRPRPVSWPRP", "Escherichia coli TOP10", "Yes"),
    ("RRIRARPPRLPRPRPRPFIEPRP", "Escherichia coli TOP10", "Yes"),
    ("RRIRFRPPRLPRPRPRPAVNPRP", "Escherichia coli TOP10", "No"),
    ("RRIRPRPPRLPRPRPRPWHCPRP", "Escherichia coli TOP10", "Yes"),
    ("RRIRHRPPRLPRPRPRPRNAPRP", "Escherichia coli TOP10", "Yes"),
    ("RRIRLRPPRLPRPRPRPSLLPRP", "Escherichia coli TOP10", "No"),
    ("RRIRLRPPRLPRPRPRPAGHPRP", "Escherichia coli TOP10", "Yes"),
    ("RRIRIRPPRLPRPRPRPDVSPRP", "Escherichia coli TOP10", "No"),
    ("RRIRERPPRLPRPRPRPWFFPRP", "Escherichia coli TOP10", "No"),
    ("RRIRSRPPRLPRPRPRPVVNPRP", "Escherichia coli TOP10", "Yes"),
]
